test system: HCV genotype 1b replicon; assay: HCV replicon assay, genotype 1b replicon EC50; assay type: cell-based, Hepatitis C virus; conditions: Hepatitis C virus, HCV replicon, genotype 1b; read-out: EC50 [gt-1b]
The entries below are paired with their reported EC50.

compound	EC50, nM
CCc1nc2ccc(OCCN3CCOCC3)cc2c2c1O[C@]1(CC2)C[C@H]2C(=O)N[C@]3(C(=O)NS(=O)(=O)C4(C)CC4)C[C@H]3/C=C\CCCCC[C@H](NC(=O)OC(C)(C)C)C(=O)N2C1 [Example 470]	5.74
COCC1(S(=O)(=O)NC(=O)[C@@]23C[C@H]2/C=C\CCCCC[C@H](NC(=O)OCC(F)F)C(=O)N2C[C@@]4(CCc5c(c(C(F)(F)F)nc6ccc(OC)cc56)O4)C[C@H]2C(=O)N3)CC1 [Example 497]	1.94
COc1ccc2nc(C(F)(F)F)c3c(c2c1)CC[C@]1(C[C@H]2C(=O)N[C@]4(C(=O)NS(=O)(=O)C5(C)CC5)C[C@H]4/C=C\CCCCC[C@H](NC(=O)OC4(C(C)C)CC4)C(=O)N2C1)O3 [Example 449]	1.39

---

target: HCV NS3/4A protease genotype 1b (Hepatitis C virus genotype 1b, UniProt P26663); assay: HCV NS3/4A protease time-resolved fluorescence (TRF) assay, Ki against genotype 1b; type: biochemical; details: IC50 [gt-1b] (nM), NS3/4A genotype 1b, enzyme 0.2 nM
Mark 1 (yes) only when IC50 stays strictly below 0.06 nM. Values equal to the cut-off are 0 (no).

molecule	class label
Cc1nc2cc(F)ccc2c2c1O[C@]1(CC2)C[C@H]2C(=O)N[C@]3(C(=O)NS(=O)(=O)C4(C)CC4)C[C@H]3/C=C\CCCCC[C@H](NC(=O)OCC(C)C)C(=O)N2C1 [Example 340]	1 (yes)
CC(C)(C)OC(=O)N[C@H]1CCCCC/C=C\[C@@H]2C[C@@]2(C(=O)NS(=O)(=O)C2CC2)NC(=O)[C@@H]2C[C@]3(CCc4c(cnc5ccccc45)O3)CN2C1=O [Example 98]	1 (yes)
CC(C)(C)OC(=O)N[C@H]1CCCCC/C=C\[C@@H]2C[C@@]2(C(=O)NS(=O)(=O)C2(C)CC2)NC(=O)[C@@H]2C[C@]3(CCc4c(c(C(F)F)nc5ccc(Cl)cc45)O3)CN2C1=O [Example 331]	1 (yes)
CCc1ccc2nc(C)c3c(c2c1)C(F)C[C@]1(C[C@H]2C(=O)N[C@]4(C(=O)NS(=O)(=O)C5(C)CC5)C[C@H]4/C=C\CCCCC[C@H](NC(=O)OC(C)(C)C(F)(F)F)C(=O)N2C1)O3 (single isomer, unassigned) [Example 347]	0 (no)
Cc1nc2ccccc2c2c1O[C@]1(CC2)C[C@H]2C(=O)N[C@]3(C(=O)NS(=O)(=O)C4(C)CC4)C[C@H]3/C=C\CCCCC[C@H](NC(=O)OC3(C(C)C)CC3)C(=O)N2C1 [Example 116]	1 (yes)

---

Molecular target: HCV NS3/4A protease genotype 3a (Hepatitis C virus genotype 3a, UniProt Q81495)
Assay: HCV NS3/4A protease time-resolved fluorescence (TRF) assay, Ki against genotype 3a
Excerpt: Measuring NS3/4A Inhibitory Activity (Ki) Against Genotype 1b, Against A156T Mutants and Against Genotype 3a One assay for measuring inhibitory activity is HCV NS3 protease time-resolved fluorescence (TRF) assay as described below and in Mao et al., Anal. Biochem. 373:1-8, 2008 and International Patent Application Publication WO 2006/102087. […]
Mark 1 only when IC50 stays strictly below 0.5 nM. Values equal to the cut-off are -1.

compound	class label
COc1ccc2nc(C(F)(F)F)c3c(c2c1)CC[C@]1(C[C@H]2C(=O)N[C@]4(C(=O)NS(=O)(=O)C5(C)CC5)C[C@H]4/C=C\CCCCC[C@H](NC(=O)OCC(C)(C)C)C(=O)N2C1)O3 [Example 382]	-1
COc1ccc2nc(C(F)F)c3c(c2n1)CC[C@]1(C[C@H]2C(=O)N[C@]4(C(=O)NS(=O)(=O)C5(C)CC5)C[C@H]4/C=C\CCCCC[C@H](NC(=O)O[C@@H]4C[C@@H]5C[C@@H]5C4)C(=O)N2C1)O3 [Example 524]	1
CCc1nc2ccc(OC)cc2c2c1O[C@]1(CC2)C[C@H]2C(=O)N[C@]3(C(=O)NS(=O)(=O)C4(C)CC4)C[C@H]3/C=C\CCCCC[C@H](NC(=O)c3cn[nH]c3)C(=O)N2C1 [Example 482]	1
COc1ccc2nc(C)c3c(c2c1)CC[C@]1(C[C@H]2C(=O)N[C@]4(C(=O)NS(=O)(=O)C5(C)CC5)C[C@H]4/C=C\CCCCC[C@H](NC(=O)OC4(C)COC4)C(=O)N2C1)O3 [Example 198]	-1
